# testedSystem: Factor XIa (Homo sapiens (Human))
# protocol: Factor XIa inhibition assay (FLINT) utilizing a fluorophore-quencher pair peptide substrate
# Format: biochemical
# experimentalParameters: 30 min preincubation, kinetic reads over 30 min, 5Fam-KLTRAETV-K5Tamra substrate 15 μM; read-out: FXIa Kin Inh IC50

{"compound": "C[C@@H](O)c1nccc(-c2cnc([C@@H]3CC[C@@H]4CC(c5c(-n6cnnn6)ccc(Cl)c5F)=CC(=O)N43)[nH]2)c1F", "IC50": "6.5 nM"}
{"compound": "CC(=O)N[C@H](C)c1ccc(-c2cnc([C@@H]3CCC4CC(c5c(-n6cnnn6)ccc(Cl)c5F)=CC(=O)N43)[nH]2)cc1 (stereo partly drawn)", "IC50": "61 nM"}
{"compound": "Nc1ccc(-c2cnc([C@@H]3CC[C@@H]4CC(c5cc(Cl)ccc5-n5cnnn5)=CC(=O)N43)[nH]2)c(F)n1 (single isomer, unassigned) [Example 120]", "IC50": "4.5 nM"}

====

# testedSystem: human plasma kallikrein (Homo sapiens (Human))
# Sequence (P03952 391-638): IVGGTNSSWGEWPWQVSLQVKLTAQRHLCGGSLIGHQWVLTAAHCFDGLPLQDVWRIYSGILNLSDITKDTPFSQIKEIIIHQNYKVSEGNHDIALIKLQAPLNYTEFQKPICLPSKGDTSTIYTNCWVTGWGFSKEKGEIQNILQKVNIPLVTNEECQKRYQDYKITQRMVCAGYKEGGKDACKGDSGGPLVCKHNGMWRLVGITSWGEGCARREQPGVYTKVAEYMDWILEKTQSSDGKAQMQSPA
# Sequence (P03952 20-390 partner): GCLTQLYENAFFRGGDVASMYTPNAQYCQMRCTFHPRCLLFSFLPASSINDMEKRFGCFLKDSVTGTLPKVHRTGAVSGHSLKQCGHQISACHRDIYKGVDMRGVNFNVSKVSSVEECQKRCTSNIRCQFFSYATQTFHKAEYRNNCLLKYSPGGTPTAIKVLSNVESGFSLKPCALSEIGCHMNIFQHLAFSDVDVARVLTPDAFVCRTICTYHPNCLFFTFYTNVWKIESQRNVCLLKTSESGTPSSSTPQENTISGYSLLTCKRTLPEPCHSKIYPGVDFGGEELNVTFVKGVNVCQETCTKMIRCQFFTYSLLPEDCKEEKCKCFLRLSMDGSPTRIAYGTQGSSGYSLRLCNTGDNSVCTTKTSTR
# protocol: Kallikrein inhibition assay (FLINT) utilizing a quenched AMC peptide substrate
# Format: biochemical
# experimentalParameters: 30 min preincubation, kinetic reads over 30 min, Z-Gly-Pro-Arg-AMC substrate 50 μM; read-out: Kallikrein Kin Inh IC50
pIC50: −log10 of the molar value.

{"compound": "[2H][C@]12CC[C@@H](c3ncc(-c4ccnc(CO)c4F)[nH]3)N1C(=O)C=C(c1c(-n3cnnn3)ccc(Cl)c1F)C2 (relative stereo) [Example 47]", "testedSystem": "human plasma kallikrein (Homo sapiens (Human))", "pIC50": 7.37}
{"compound": "O=C1C=C(c2c(-n3cnnn3)ccc(Cl)c2F)CC2CC[C@@H](c3nc(Cl)c(-c4cc[nH]c(=O)c4)[nH]3)N12 (stereo partly drawn) [Example 199]", "testedSystem": "human plasma kallikrein (Homo sapiens (Human))", "pIC50": 7.81}
{"compound": "[2H]c1nc([C@H]2CC[C@]3([2H])CC(c4c(-n5cnnn5)ccc(Cl)c4F)=CC(=O)N23)[nH]c1-c1c(F)nc(N)c([2H])c1[2H] (single isomer, unassigned) [Example 131]", "testedSystem": "human plasma kallikrein (Homo sapiens (Human))", "pIC50": 7.93}
{"compound": "O=C1C=C(c2c(-n3cnnn3)ccc(Cl)c2F)C[C@H]2CC[C@@H](c3ncc(-c4c[nH]c5cnccc45)[nH]3)N12 (single isomer, unassigned) [Example 19]", "testedSystem": "human plasma kallikrein (Homo sapiens (Human))", "pIC50": 8.13}
{"compound": "Cc1cc2c(-c3cnc([C@@H]4CCC5CC(c6c(-n7cnnn7)ccc(Cl)c6F)=CC(=O)N54)[nH]3)c[nH]c2cn1 (stereo partly drawn) [Example 381]", "testedSystem": "human plasma kallikrein (Homo sapiens (Human))", "pIC50": 7.87}
{"compound": "O=C1C=C(c2c(-n3cnnn3)ccc(Cl)c2F)C[C@@H]2CC[C@@H](c3ncc(-c4cc[n+]([O-])cc4)[nH]3)N12 (relative stereo) [Example 321]", "testedSystem": "human plasma kallikrein (Homo sapiens (Human))", "pIC50": 6.47}
{"compound": "O=C1C=C(c2c(-n3cnnn3)ccc(Cl)c2F)C[C@@H]2CC[C@@H](c3ncc(-c4ccnc([C@H](O)C(F)(F)F)c4F)[nH]3)N12 (single isomer, unassigned) [Example 170]", "testedSystem": "human plasma kallikrein (Homo sapiens (Human))", "pIC50": 7.50}
{"compound": "CC(O)COc1nccc(-c2cnc([C@@H]3CC[C@@H]4CC(c5c(-n6cnnn6)ccc(Cl)c5F)=CC(=O)N43)[nH]2)c1F (single isomer, unassigned) [Example 28]", "testedSystem": "human plasma kallikrein (Homo sapiens (Human))", "pIC50": 8.03}
{"compound": "COCc1nccc(-c2c[nH]c([C@@H]3CCC4CC(c5c(-n6cnnn6)ccc(Cl)c5F)=CC(=O)N43)n2)c1F (stereo partly drawn) [Example 177]", "testedSystem": "human plasma kallikrein (Homo sapiens (Human))", "pIC50": 7.67}
{"compound": "COCCNC(=O)c1nccc(-c2cnc([C@@H]3CC[C@@H]4CC(c5c(-n6cnnn6)ccc(Cl)c5F)=CC(=O)N43)[nH]2)c1F [Example 180]", "testedSystem": "human plasma kallikrein (Homo sapiens (Human))", "pIC50": 7.48}
{"compound": "Nc1ccc(-c2[nH]c([C@@H]3CC[C@@H]4CC(c5cc(Cl)ccc5-n5cnnn5)=CC(=O)N43)nc2F)c(F)n1 [Example 69]", "testedSystem": "human plasma kallikrein (Homo sapiens (Human))", "pIC50": 8.42}
{"compound": "CC(C)Oc1ccccc1-c1cnc([C@@H]2CCC3CC(c4c(-n5cnnn5)ccc(Cl)c4F)=CC(=O)N32)[nH]1 (stereo partly drawn) [Example 294]", "testedSystem": "human plasma kallikrein (Homo sapiens (Human))", "pIC50": 7.34}

====

Recorded log10(IC50) values for a group of compounds are listed next.
# testedSystem: Factor XIa (Homo sapiens (Human), UniProt P03951)
# Sequence (P03951 388-625): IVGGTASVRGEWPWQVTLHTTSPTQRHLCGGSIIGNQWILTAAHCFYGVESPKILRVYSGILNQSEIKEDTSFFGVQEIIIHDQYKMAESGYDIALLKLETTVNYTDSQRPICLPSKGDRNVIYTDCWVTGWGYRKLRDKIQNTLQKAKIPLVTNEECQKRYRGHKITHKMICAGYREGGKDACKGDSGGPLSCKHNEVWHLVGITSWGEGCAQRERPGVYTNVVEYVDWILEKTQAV
# Sequence (P03951 19-387 partner): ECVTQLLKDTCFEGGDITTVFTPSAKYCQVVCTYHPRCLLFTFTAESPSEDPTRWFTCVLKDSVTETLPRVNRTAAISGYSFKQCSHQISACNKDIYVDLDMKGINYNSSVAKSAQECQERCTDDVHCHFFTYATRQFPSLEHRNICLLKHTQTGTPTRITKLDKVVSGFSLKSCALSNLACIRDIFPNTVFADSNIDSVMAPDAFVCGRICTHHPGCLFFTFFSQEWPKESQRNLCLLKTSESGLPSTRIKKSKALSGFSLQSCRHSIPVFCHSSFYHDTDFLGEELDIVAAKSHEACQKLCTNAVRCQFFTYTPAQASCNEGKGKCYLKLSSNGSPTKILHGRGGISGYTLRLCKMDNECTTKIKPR
# protocol: Factor XIa inhibition assay (FLINT) utilizing a fluorophore-quencher pair peptide substrate
# Assay type: biochemical
# experimentalParameters: 30 min preincubation, kinetic reads over 30 min, 5Fam-KLTRAETV-K5Tamra substrate 15 μM; read-out: FXIa Kin Inh IC50
quantityName: log10(IC50) (log10 of the value in nM)

{"compound": "O=C1Cc2cc(-c3cnc([C@@H]4CC[C@H]5CC(c6c(-n7cnnn7)ccc(Cl)c6F)=CC(=O)N54)[nH]3)ccc2N1 [Example 283]", "quantityName": "log10(IC50)", "valueReported": 0.54}
{"compound": "NC(=O)c1cc(-c2cnc([C@@H]3CC[C@@H]4CC(c5c(-n6cnnn6)ccc(Cl)c5F)=CC(=O)N43)[nH]2)cs1 [Example 234]", "quantityName": "log10(IC50)", "valueReported": 0.00}
{"compound": "O=C1C=C(c2c(-n3cnnn3)ccc(Cl)c2F)C[C@H]2CC[C@@H](c3ncc(-c4ccncc4F)[nH]3)N12 [Example 17]", "quantityName": "log10(IC50)", "valueReported": 0.48}
{"compound": "O=C1C=C(c2c(-n3cnnn3)ccc(Cl)c2F)C[C@H]2CC[C@@H](c3nc(-c4cccc5[nH]ncc45)c[nH]3)N12 [Example 51]", "quantityName": "log10(IC50)", "valueReported": 0.58}
{"compound": "[2H]c1nc([C@@H]2CC[C@@H]3CC(c4c(-n5cnnn5)ccc(Cl)c4F)=CC(=O)N32)[nH]c1-c1ccnc(CO)c1F [Example 117]", "quantityName": "log10(IC50)", "valueReported": 0.46}
{"compound": "CCOC(=O)Nc1cnccc1-c1c[nH]c([C@@H]2CC[C@H]3CC(c4c(-n5cnnn5)ccc(Cl)c4F)=CC(=O)N32)n1 [Example 263]", "quantityName": "log10(IC50)", "valueReported": 0.36}
{"compound": "CNc1ccc(-c2cnc([C@@H]3CCC4CC(c5c(-n6cnnn6)ccc(Cl)c5F)=CC(=O)N43)[nH]2)c(F)n1 (stereo partly shown) [Example 368]", "quantityName": "log10(IC50)", "valueReported": -0.15}
{"compound": "CC(C)(CO)Nc1nccc(-c2cnc([C@@H]3CC[C@@H]4CC(c5cc(Cl)ccc5-n5cnnn5)=CC(=O)N43)[nH]2)c1F [Example 79]", "quantityName": "log10(IC50)", "valueReported": 0.88}
{"compound": "NC(=O)c1cc(-c2cnc([C@@H]3CC[C@@H]4CC(c5c(-n6cnnn6)ccc(Cl)c5F)=CC(=O)N43)[nH]2)ccc1F [Example 233]", "quantityName": "log10(IC50)", "valueReported": 1.38}
{"compound": "NC(=O)c1ccc(-c2nc([C@@H]3CC[C@@H]4CC(c5c(-n6cc(C(F)(F)F)nn6)ccc(Cl)c5F)=CC(=O)N43)[nH]c2Cl)s1 [Example 203]", "quantityName": "log10(IC50)", "valueReported": -0.05}
{"compound": "O=C(Nc1ccsc1-c1c[nH]c([C@@H]2CCC3CC(c4c(-n5cnnn5)ccc(Cl)c4F)=CC(=O)N32)n1)C1CC1 (stereo partly shown) [Example 248]", "quantityName": "log10(IC50)", "valueReported": 0.00}
{"compound": "O=C1C=C(c2c(-n3cnnn3)ccc(Cl)c2F)C[C@H]2CC[C@@H](c3nc(-c4ccc5[nH]cnc5c4)c[nH]3)N12 [Example 42]", "quantityName": "log10(IC50)", "valueReported": 0.00}
{"compound": "CC1CC2CC(c3c(-n4cnnn4)ccc(Cl)c3F)=CC(=O)N2C1c1ncc(-c2ccc(N)nc2F)[nH]1 (stereo not shown) [Example 328]", "quantityName": "log10(IC50)", "valueReported": 0.53}

====

This section presents molecules with their documented IC50 values.
# testedSystem: Factor XIa (Homo sapiens (Human))
# protocol: Factor XIa inhibition assay (FLINT) utilizing a fluorophore-quencher pair peptide substrate
# Assay type: biochemical
# experimentalParameters: 30 min preincubation, kinetic reads over 30 min, 5Fam-KLTRAETV-K5Tamra substrate 15 μM; read-out: FXIa Kin Inh IC50

{"molecule": "N#CC1(c2nccc(-c3cnc([C@@H]4CC[C@@H]5CC(c6c(-n7cnnn7)ccc(Cl)c6F)=CC(=O)N54)[nH]3)c2F)COC1 (single isomer, unassigned) [Example 138]", "reportedRelation": "=", "IC50, nM": 32}
{"molecule": "O=C1C=C(c2c(-n3cnnn3)ccc(Cl)c2F)C[C@H]2CC[C@H](c3ncc(-c4ccnc(C5(O)CC5)c4F)[nH]3)N12 (single isomer, unassigned) [Example 162]", "reportedRelation": "=", "IC50, nM": 4.2}
{"molecule": "O=C(Nc1ccccc1-c1cnc([C@@H]2CC[C@@H]3CC(c4c(-n5cnnn5)ccc(Cl)c4F)=CC(=O)N32)[nH]1)C1CC1 [Example 307]", "reportedRelation": "=", "IC50, nM": 0.3}
{"molecule": "O=C1C=C(c2c(-n3cnnn3)ccc(Cl)c2F)C[C@H]2CC[C@@H](c3ncc(-c4ccnc(C[C@@H](O)C(F)(F)F)c4F)[nH]3)N12 (single isomer, unassigned) [Example 144]", "reportedRelation": "=", "IC50, nM": 3.1}
{"molecule": "CNc1n[nH]c2cc(-c3cnc([C@@H]4CCC5CC(c6c(-n7cnnn7)ccc(Cl)c6F)=CC(=O)N54)[nH]3)ccc12 (stereo partly drawn) [Example 258]", "reportedRelation": "=", "IC50, nM": 0.3}
{"molecule": "CC(=O)Nc1cc(-c2cnc([C@@H]3CCC4CC(c5c(-n6cnnn6)ccc(Cl)c5F)=CC(=O)N43)[nH]2)c(Cl)cn1 (stereo partly drawn) [Example 18]", "reportedRelation": "=", "IC50, nM": 82.1}
{"molecule": "COc1ccc(NC(=O)C2CC2)c(-c2c[nH]c([C@@H]3CC[C@@H]4CC(c5c(-n6cnnn6)ccc(Cl)c5F)=CC(=O)N43)n2)c1 [Example 257]", "reportedRelation": "=", "IC50, nM": 0.5}
{"molecule": "NC(=O)c1ncc(-c2c[nH]c([C@@H]3CC[C@H]4CC(c5c(-n6cc(C(F)(F)F)nn6)ccc(Cl)c5F)=CC(=O)N43)n2)s1 (single isomer, unassigned) [Example 209]", "reportedRelation": "=", "IC50, nM": 46.5}
{"molecule": "CC1(C)C[C@@H](c2ncc(-c3ccc(N)nc3Cl)[nH]2)N2C(=O)C=C(c3c(-n4cnnn4)ccc(Cl)c3F)CC21 (stereo partly drawn) [Example 349]", "reportedRelation": "=", "IC50, nM": 0.6}
{"molecule": "CC(=O)Nc1cnc(C(F)(F)F)cc1-c1cnc([C@@H]2CC[C@H]3CC(c4c(-n5cnnn5)ccc(Cl)c4F)=CC(=O)N32)[nH]1 [Example 244]", "reportedRelation": ">", "IC50, nM": 100}
{"molecule": "C[C@H](O)c1nccc(-c2cnc([C@@H]3CC[C@@H]4CC(c5c(-n6cnnn6)ccc(Cl)c5F)=CC(=O)N43)[nH]2)c1F [Example 186]", "reportedRelation": "=", "IC50, nM": 4.6}
